Let's go through some IC50 measurements on EGFR (human) (UniProt P00533) together.
Sequence (P00533 whole entry, looked up): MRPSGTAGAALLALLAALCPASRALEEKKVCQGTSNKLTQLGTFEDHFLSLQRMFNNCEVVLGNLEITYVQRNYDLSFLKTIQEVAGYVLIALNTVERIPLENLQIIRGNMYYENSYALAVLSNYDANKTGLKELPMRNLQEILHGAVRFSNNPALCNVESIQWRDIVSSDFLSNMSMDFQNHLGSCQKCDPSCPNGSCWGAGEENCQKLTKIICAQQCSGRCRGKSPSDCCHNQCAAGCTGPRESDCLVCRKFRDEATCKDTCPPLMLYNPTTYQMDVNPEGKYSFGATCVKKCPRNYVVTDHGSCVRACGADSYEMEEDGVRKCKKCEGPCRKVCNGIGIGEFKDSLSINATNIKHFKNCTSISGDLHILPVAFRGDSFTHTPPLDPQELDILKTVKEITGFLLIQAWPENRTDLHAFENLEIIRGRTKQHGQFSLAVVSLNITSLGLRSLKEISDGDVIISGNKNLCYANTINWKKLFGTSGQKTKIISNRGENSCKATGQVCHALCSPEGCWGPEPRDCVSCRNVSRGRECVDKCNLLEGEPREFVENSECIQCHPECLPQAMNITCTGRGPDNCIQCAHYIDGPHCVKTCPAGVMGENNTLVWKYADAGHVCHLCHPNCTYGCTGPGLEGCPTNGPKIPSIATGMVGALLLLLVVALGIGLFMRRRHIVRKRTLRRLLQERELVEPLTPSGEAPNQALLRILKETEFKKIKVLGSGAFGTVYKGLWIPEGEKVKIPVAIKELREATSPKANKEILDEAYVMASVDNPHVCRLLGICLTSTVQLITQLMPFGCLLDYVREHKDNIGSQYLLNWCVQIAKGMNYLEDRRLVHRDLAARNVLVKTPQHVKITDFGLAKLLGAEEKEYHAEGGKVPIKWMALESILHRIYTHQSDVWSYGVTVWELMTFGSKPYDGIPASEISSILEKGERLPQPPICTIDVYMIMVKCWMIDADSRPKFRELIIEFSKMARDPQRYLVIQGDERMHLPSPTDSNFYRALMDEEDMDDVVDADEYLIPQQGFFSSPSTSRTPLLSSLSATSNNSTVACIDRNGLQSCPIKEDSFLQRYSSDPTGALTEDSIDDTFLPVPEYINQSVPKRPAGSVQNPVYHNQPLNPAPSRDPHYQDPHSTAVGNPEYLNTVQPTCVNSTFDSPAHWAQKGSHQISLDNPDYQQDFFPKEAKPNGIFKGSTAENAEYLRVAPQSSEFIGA
endpoint name: IC50 (nM)

COc1cc2ncnc(NC3CC3c3ccccc3)c2cc1OCCCN(C)C (stereo not given): 310

1: COc1cc2ncnc(N3CCc4ccccc43)c2cc1OC
2: COc1cc2ncnc(Nc3cncc4ccccc34)c2cc1OC
IN: Param pair: 1 , 2 . Output: the one whose IC50 is numerically greater. Return value: the label identifying the chosen record.
OUT: 1
